Test system: Sam68 (KHDRBS1)
Assay text: Sam68 small-molecule binders, primary screen, biochemical, small-molecule microarray, 635 nm fluorescence (AID 1125);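 note: score merges 667 nm channel intensity with signal to noise over triplicate slides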
Applied conditions: small-molecule microarray binding, higher = more signal
// values below are reported composite z-score
Quantity name: composite z-score

Compound	Quantity name	Result
CC(CO)N1C(=O)[C@@H]2C3C(=O)OCCC/C=C\[C@H]3OC23C=CCN(Cn2nnc4ccccc42)C(=O)[C@@H]13 (some centres not stated)	composite z-score	-1.07
C=CC1c2cc(O)c(OC)cc2CCN1Cc1sc2ccccc2c1Cl (configuration not stated)	composite z-score	0.807
C=C(COC)/C(=C/C[C@@H](OC(=O)c1ccncc1)c1cccc(OCCO)c1)c1cnc2ccccc2c1	composite z-score	1.31
COc1ccc([Si](C)(C)[C@H]2[C@H](CCn3cc([C@H](O)c4ccccc4)nn3)O[C@@]3(C(=O)N(Cc4cccc(N5C(=O)c6cccc7cccc5c67)c4)c4ccccc43)[C@@H]2C)cc1	composite z-score	0.258
O=C1NC(=O)C2C1C=CC(C(O)c1ccc3c(c1)OCO3)N2Nc1ccccn1 (configuration not stated)	composite z-score	0.153
CN(C)CCCN1C(=O)[C@@]2(c3ccc([N+](=O)[O-])cc3)CC(=O)N(CC34CC5CC(CC(C5)C3)C4)[C@@H]2c2ccc(CO)cc21	composite z-score	0.503
CC(=O)N1Cc2ccccc2C[C@]2(N=C(c3ccc(OCCCO)cc3)O[C@@H]2c2ccccc2)C1=O	composite z-score	1.3

Data origin: PubChem BioAssay
